A short record of pKi observed with Sodium-dependent dopamine transporter (Rattus norvegicus, UniProt P23977) follows.
Sequence (P23977 whole entry): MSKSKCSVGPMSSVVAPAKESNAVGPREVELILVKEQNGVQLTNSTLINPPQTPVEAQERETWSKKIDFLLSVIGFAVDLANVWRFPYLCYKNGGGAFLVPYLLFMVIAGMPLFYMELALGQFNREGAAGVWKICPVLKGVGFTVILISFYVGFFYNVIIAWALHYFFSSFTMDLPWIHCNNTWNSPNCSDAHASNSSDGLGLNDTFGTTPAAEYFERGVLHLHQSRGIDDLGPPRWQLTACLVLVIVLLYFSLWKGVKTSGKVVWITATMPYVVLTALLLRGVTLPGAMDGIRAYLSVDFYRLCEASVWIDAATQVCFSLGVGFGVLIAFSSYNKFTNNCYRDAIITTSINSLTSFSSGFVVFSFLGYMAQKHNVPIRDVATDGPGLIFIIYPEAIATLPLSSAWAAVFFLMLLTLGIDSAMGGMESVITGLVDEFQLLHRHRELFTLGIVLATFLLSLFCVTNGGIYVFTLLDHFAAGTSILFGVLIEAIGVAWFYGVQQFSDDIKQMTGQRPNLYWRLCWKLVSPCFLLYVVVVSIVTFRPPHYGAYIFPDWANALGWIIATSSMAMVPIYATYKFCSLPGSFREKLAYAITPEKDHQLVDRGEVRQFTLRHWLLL
Formally, pKi is defined as -log10 of the concentration c, with c in mol/L.

> print(dat)
                                   molecule  observed.result
1  CN1[C@@H]2CC[C@H]1C[C@@H](OC(c1ccccc1)c1ccc(Cl)c(Cl)c1)C2 (some centres undefined)             7.68
2  COc1ccc(C(O[C@H]2C[C@H]3CC[C@@H](C2)N3C)c2ccccc2)cc1 (some centres undefined)             7.11

Task item: Identify the measured pKi of CN1C2CCC1CC(OC(c1ccccc1)c1ccc(Cl)cc1)C2 (stereo in doubt; 7a) for Sodium-dependent dopamine transporter (Rattus norvegicus, UniProt P23977).
Reply: 7.52

Task item: Param readout = pKi; param system = Sodium-dependent dopamine transporter (Rattus norvegicus, UniProt P23977); param query = "COc1ccc(C(O[C@H]2C[C@H]3CC[C@@H](C2)N3C)c2ccc(OC)cc2)cc1" ; response: value
Reply: 5.70
